EXPERIMENT_SUMMARY: Pharmacokinetics of compound I-1 in the dog by intravenous, oral gavage and oral capsule routes
Type: in vivo, beagle dogs
PARTICULARS: male, beagle, dog, plasma, po, 7.2 mg/kg, 100 mg Capsule, average dose 7.2 mg/kg; Subj2
METRIC_NAME: Tmax (h)
State just the number; it will be interpreted in h.

Q: Any idea what Tmax was measured for CC(C)(O)c1nc2ccccc2cc1N ?
A: 2.37

* * *

EXPERIMENT_SUMMARY: Pharmacokinetics of compound I-1 in the dog by intravenous, oral gavage and oral capsule routes
Type: in vivo, beagle dogs
PARTICULARS: male, beagle, dog, plasma, iv, 3 mg/kg, Group 1: IV 3 mg/kg; 1 h; Average; read-out: Concentration at time point
METRIC_NAME: concentration at 1 h (ng/mL)
Give the quantity in ng/mL, number only.

Q: Give the measured concentration at 1 h of CC(C)(O)c1nc2ccccc2cc1N .
A: 951

* * *

EXPERIMENT_SUMMARY: Phase 1 clinical trial, multiple ascending dose (MAD) pharmacokinetics
Type: in vivo, human
PARTICULARS: human, in vivo, po, 350 mg, oral 350 mg BID; Day 10; read-out: Mean t1/2 (converted)
METRIC_NAME: half-life (min)
The reply should be a number in min, with the unit left off.

Q: Fill in the blank: the reported half-life of CC(C)(O)c1nc2ccccc2cc1N is ____.
A: 410

* * *

EXPERIMENT_SUMMARY: Pharmacokinetics of compound I-1 in the dog by intravenous, oral gavage and oral capsule routes
Type: in vivo, beagle dogs
PARTICULARS: male, beagle, dog, plasma, iv, 3 mg/kg, Intravenous - 3 mg/kg; Subj3
METRIC_NAME: C0

Q: Find the recorded C0 belonging to CC(C)(O)c1nc2ccccc2cc1N and report it.
A: 7890 ng/mL

* * *

EXPERIMENT_SUMMARY: Pharmacokinetics of compound I-1 in the dog by intravenous, oral gavage and oral capsule routes
Assay type: in vivo, beagle dogs
PARTICULARS: male, beagle, dog, plasma, oral, 7 mg/kg, Group 3: PO Capsule 7 mg/kg; 8 h; Average; read-out: Concentration at time point
METRIC_NAME: concentration at 8 h (ng/mL)
Entry rule: numbers only, all in ng/mL.

Q: I would be grateful if you could share the reported concentration at 8 h for CC(C)(O)c1nc2ccccc2cc1N [I-1] .
A: 223

* * *

EXPERIMENT_SUMMARY: Pharmacokinetic comparison of ADX-102 (reproxalap) and compound I-1 in rats
Format: in vivo, Sprague-Dawley rats
PARTICULARS: Sprague-Dawley, in vivo; SD Rat; oral gavage 50 mg/kg; 0.5% MC
METRIC_NAME: half-life (h)
State just the number; it will be interpreted in h.

Q: Any idea what half-life was measured for CC(C)(O)c1nc2ccccc2cc1N ?
A: 2.96

* * *

EXPERIMENT_SUMMARY: Phase 1 clinical trial, multiple ascending dose (MAD) pharmacokinetics
Assay type: in vivo, human
PARTICULARS: human, in vivo, po, 600 mg, oral 600 mg BID; Day 1; read-out: Mean t1/2 (converted)
From the text: PK data are presented below.
METRIC_NAME: half-life

Q: Entry under review: CC(C)(O)c1nc2ccccc2cc1N . Reported half-life?
A: ~4.15 h

* * *

EXPERIMENT_SUMMARY: Pharmacokinetics of compound I-1 in the dog by intravenous, oral gavage and oral capsule routes
Type: in vivo, beagle dogs
PARTICULARS: male, beagle, dog, plasma, oral, 7 mg/kg, Group 3: PO Capsule 7 mg/kg; 12 h; Subject 1; read-out: Concentration at time point
Protocol: A pharmacokinetic study was conducted to compare the bioavailability of capsule and suspension oral formulations vs. an intravenous formulations. The standard curve was prepared from 1 to 2,000 ng/mL. QC samples were prepared at 30, 30, and 750 ng/mL. […] The resulting supernatants were analyzed by LCMS. […] The I-1 100 mg capsules are manufactured as a non-sterile spray dried, granulated powder blend. […] The quantitative composition of the I-1 100 mg capsule is presented above in Table B. […]
METRIC_NAME: concentration at 12 h (ng/mL)
Could you give me the number in ng/mL? Just the number is fine.

Q: Name the reported concentration at 12 h value associated with the molecule CC(C)(O)c1nc2ccccc2cc1N
A: 58.7

* * *

EXPERIMENT_SUMMARY: Phase 1 clinical trial, multiple ascending dose (MAD) pharmacokinetics
Assay type: in vivo, human
PARTICULARS: human, in vivo, po, 350 mg, oral 350 mg BID; Day 10; read-out: Mean Cmax
METRIC_NAME: Cmax
Don't forget the unit after the number, please.

Q: Need Cmax, item CC(C)(O)c1nc2ccccc2cc1N
A: 1230 ng/mL

* * *

EXPERIMENT_SUMMARY: Phase 1 clinical trial, single ascending dose (SAD) pharmacokinetics
Format: in vivo, human
PARTICULARS: human, in vivo, po, 700 mg, healthy volunteers; oral single dose 700 mg
Source text: Pharmacokinetic data are presented below.
METRIC_NAME: AUC(0-inf)

Q: Which AUC(0-inf) reading was recorded for the compound CC(C)(O)c1nc2ccccc2cc1N [I-1] ?
A: ~6710 ng·h/mL

* * *

EXPERIMENT_SUMMARY: Phase 1 clinical trial, multiple ascending dose (MAD) pharmacokinetics
Type: in vivo, human
PARTICULARS: human, in vivo, po, 50 mg, oral 50 mg BID; Day 10; read-out: Mean Cmax
Source text: PK data are presented below.
METRIC_NAME: Cmax
Note to self: number, then unit, no commentary.

Q: # input compound: CC(C)(O)c1nc2ccccc2cc1N ; wanted: its Cmax
A: 85.9 ng/mL

* * *

EXPERIMENT_SUMMARY: Pharmacokinetics of compound I-1 in the dog by intravenous, oral gavage and oral capsule routes
Assay type: in vivo, beagle dogs
PARTICULARS: male, beagle, dog, plasma, po, 10 mg/kg, Group 2: PO Gavage 10 mg/kg; 0.25 h; Subject 1; read-out: Concentration at time point
METRIC_NAME: concentration at 0.25 h (ng/mL)
Give just the number in ng/mL; leave the unit off.

Q: Any idea what its concentration at 0.25 h is? The compound is CC(C)(O)c1nc2ccccc2cc1N
A: 3360

* * *

EXPERIMENT_SUMMARY: Pharmacokinetics of compound I-1 in the dog by intravenous, oral gavage and oral capsule routes
Type: in vivo, beagle dogs
PARTICULARS: male, beagle, dog, plasma, iv, 3 mg/kg, Group 1: IV 3 mg/kg; 12 h; Average; read-out: Concentration at time point
METRIC_NAME: concentration at 12 h

Q: Need concentration at 12 h, item CC(C)(O)c1nc2ccccc2cc1N
A: 15.5 ng/mL

* * *

EXPERIMENT_SUMMARY: Pharmacokinetics of compound I-1 in the dog by intravenous, oral gavage and oral capsule routes
Assay type: in vivo, beagle dogs
PARTICULARS: male, beagle, dog, plasma, po, 10 mg/kg, Oral Gavage 0.5% Methylcellulose 10 mg/kg; Subj3
METRIC_NAME: Tmax

Q: So what's the measured Tmax for this one? CC(C)(O)c1nc2ccccc2cc1N
A: 38.1 min

* * *

EXPERIMENT_SUMMARY: Pharmacokinetics of compound I-1 in the dog by intravenous, oral gavage and oral capsule routes
Assay type: in vivo, beagle dogs
PARTICULARS: male, beagle, dog, plasma, iv, 3 mg/kg, Intravenous - 3 mg/kg; Subj1; read-out: Vss
Method: A pharmacokinetic study was conducted to compare the bioavailability of capsule and suspension oral formulations vs. an intravenous formulations. The standard curve was prepared from 1 to 2,000 ng/mL. QC samples were prepared at 30, 30, and 750 ng/mL. […] The resulting supernatants were analyzed by LCMS. […] The I-1 100 mg capsules are manufactured as a non-sterile spray dried, granulated powder blend. […] The quantitative composition of the I-1 100 mg capsule is presented above in Table B. […]
METRIC_NAME: Vd (L/kg)
Expressed in L/kg, but write only the number.

Q: Can you share its Vd? I mean this compound: CC(C)(O)c1nc2ccccc2cc1N
A: 1.51

* * *

EXPERIMENT_SUMMARY: Pharmacokinetics of compound I-1 in the dog by intravenous, oral gavage and oral capsule routes
Assay type: in vivo, beagle dogs
PARTICULARS: male, beagle, dog, plasma, po, 10 mg/kg, Group 2: PO Gavage 10 mg/kg; 0.25 h; Subject 2; read-out: Concentration at time point
METRIC_NAME: concentration at 0.25 h (ng/mL)
Value expressed in ng/mL; do not type the unit.

Q: Report concentration at 0.25 h for CC(C)(O)c1nc2ccccc2cc1N please.
A: 2760

* * *

EXPERIMENT_SUMMARY: Pharmacokinetics of compound I-1 in the dog by intravenous, oral gavage and oral capsule routes
Assay type: in vivo, beagle dogs
PARTICULARS: male, beagle, dog, plasma, iv, 3 mg/kg, Group 1: IV 3 mg/kg; 12 h; Subject 3; read-out: Concentration at time point
METRIC_NAME: concentration at 12 h

Q: // concentration at 12 h lookup, key: CC(C)(O)c1nc2ccccc2cc1N [I-1]
A: 5.5 ng/mL

Values were extracted from patent US12064516B2.
